assay: Pharmacokinetic analysis and oral bioavailability in rats; format: in vivo, male Spagrue-Dawley rats; conditions: male, Sprague-Dawley, plasma; rat, IV, 10 mg/kg methotrexate; read-out: Elim Half-Life (converted)
measure.name: half-life (min)
Provide the reading as a plain figure in min.

Qu. Sample CN(Cc1cnc2nc(N)nc(N)c2n1)c1ccc(C(=O)N[C@@H](CCC(=O)O)C(=O)O)cc1 [Methotrexate, methotrexate] — what was its half-life?
Ans. 26.4

----------
test: Pharmacokinetic analysis and oral bioavailability in rats; type: in vivo, male Spagrue-Dawley rats; conditions: male, Sprague-Dawley, plasma; rat, PO 100 mg/kg vs IV 10 mg/kg methotrexate, dose-normalized AUC ratio
measure.name: bioavailability (%)
// units = %; emit number, no label

Qu. Need bioavailability of CN(Cc1cnc2nc(N)nc(N)c2n1)c1ccc(C(=O)N[C@@H](CCC(=O)O)C(=O)O)cc1 [Methotrexate, methotrexate] , thanks.
Ans. 6

----------
test: Pharmacokinetic analysis and oral bioavailability in rats; format: in vivo, male Spagrue-Dawley rats; details: male, Sprague-Dawley, plasma; rat, IV, 10 mg/kg methotrexate; read-out: Vd
measure.name: Vd (L/kg)
Write it as a number; the unit L/kg goes unstated.

Qu. What Vd value was documented for this molecule, CN(Cc1cnc2nc(N)nc(N)c2n1)c1ccc(C(=O)N[C@@H](CCC(=O)O)C(=O)O)cc1 [Methotrexate, methotrexate] ?
Ans. 6.12
